assay: qHTS assay for identifying genotoxic compounds that show differential cytotoxicity against isogenic chicken DT40 cell lines with known DNA damage response pathways - Rad54/Ku70 mutant cell line (AID 743015); settings: DT40 Rad54/Ku70 mutant viability, CellTiter-Glo, 40 h; series mostly up to 66.8 µM; note: nearly all actives have a fitted effect of over 60% in size
Results filed as inconclusive are left out. The source made the active and inactive calls. Calls come from the whole dose curve; as a rule, active = well fitted cell-killing curve with a large enough effect in the repeat runs; inconclusive = weak or mixed curves; inactive = no such curve, though single readings can be large or run the other way.
Lab note: assign the record to one of active, inactive

The examples below pair each entry with its known result.
COc1ccc(C(=O)N2CCCC2=O)cc1 | inactive
C=C(C)[C@@H]1CC=C(C=O)CC1 | active
COC(=O)C1=CCCN(C)C1 | inactive
COC(=O)c1ccccc1S(=O)(=O)NC(=O)Nc1nc(C)cc(C)n1 | inactive
O=C(Oc1ccc(Br)cc1)N1CCN2CCC1CC2 | active
CCCCCCBr | inactive
ClCC(Cl)(Cl)Cl | inactive
COc1cc(C[C@@H](C)N)c(OC)cc1C | inactive
C#C[C@]1(O)C=C[C@H]2[C@@H]3CCC4=CC(=O)CC[C@@H]4[C@H]3CC[C@@]21CC | active
O=[N+]([O-])c1cc(Cl)c(Cl)c(Cl)c1 | inactive

Answer briefly: the call reported for CC1CCC(=O)O1 (centres undefined) in this assay.
inactive

Outcome? O=c1oc2ccccc2c(O)c1C1CCCc2ccccc21 (centres undefined)
inactive

Outcome logged for CC(C)CC#N in this assay:
inactive

Which outcome did this test record for the compound CCCCOP(=O)(O)OCCCC ?
inactive

Short answer needed: outcome of this test for c1cc[c]([Hg][c]2ccccc2)cc1 ?
active

# lookup: test call for COc1cc(OC)nc(NC(=O)NS(=O)(=O)c2ncccc2OCC(F)(F)F)n1
inactive

Sourced from PubChem BioAssay (Tox21)
